Listed here are compounds together with their documented Radioactivity in Stomach.
PROTOCOL: Biodistribution in ddY mice
Assay type: in vivo
CONDITION SUMMARY: i.v. co-injection, 4 h
RECORDED METRIC: Radioactivity in Stomach

[[record]]
compound = "COCCOc1ccc2c(c1)ncn2-c1ccc2c([125I])ccc(N3CCC(N)CC3)c2n1 [[^125I]4, reference compound]"
data_value = "0.85 (0.21) %injected dose /organ"

[[record]]
compound = "COCCOc1ccc2c(c1)ncn2-c1ccc2cccc(N3CCC(NC(=O)c4cccc([125I])c4)CC3)c2n1 [[^125I]5, reference compound]"
data_value = "0.27 (0.10) %injected dose /organ"

[[record]]
compound = "COCCOc1ccc2c(c1)ncn2-c1ccc2c([77Br])ccc(N3CCC(N)CC3)c2n1 [[^77Br]2]"
data_value = "0.81 (0.21) %injected dose /organ"

[[record]]
compound = "COCCOc1ccc2c(c1)ncn2-c1ccc2cccc(N3CCC(NC(=O)c4cccc([77Br])c4)CC3)c2n1 [[^77Br]3]"
data_value = "0.59 (0.26) %injected dose /organ"


* * *

Listed here are compounds together with their documented Radioactivity in Muscle.
PROTOCOL: Biodistribution in ddY mice
Type: in vivo
CONDITION SUMMARY: i.v. co-injection, 24 h
From the text: In this study, to minimize both the number of mice consumed in the experiment and the potential for experimental errors, we co-injected radiobrominated and radioiodinated compounds into mice[30],[31]. High radioactivity in the liver, small intestine, and large intestine was observed. […] Tissues in mice were resected and weighed. The radioactivity of the tissues was counted by a gamma counter and counts were corrected for background radiation. […]
Marks after values point to notes of the source that are not given here.
RECORDED METRIC: Radioactivity in Muscle

[[record]]
compound = "COCCOc1ccc2c(c1)ncn2-c1ccc2c([77Br])ccc(N3CCC(N)CC3)c2n1 [[^77Br]2]"
recorded_metric = "Radioactivity in Muscle"
data_value = "0.22 (0.02) %injected dose/gram tissue"

[[record]]
compound = "COCCOc1ccc2c(c1)ncn2-c1ccc2cccc(N3CCC(NC(=O)c4cccc([77Br])c4)CC3)c2n1 [[^77Br]3]"
recorded_metric = "Radioactivity in Muscle"
data_value = "0.54 (0.04) %injected dose/gram tissue"


* * *

PROTOCOL: Biodistribution in ddY mice
Type: in vivo
CONDITION SUMMARY: i.v. co-injection, 24 h
Marks after values point to notes of the source that are not given here.
Listed here are compounds together with their documented Radioactivity in Small intestine.
RECORDED METRIC: Radioactivity in Small intestine

[[record]]
compound = "COCCOc1ccc2c(c1)ncn2-c1ccc2c([77Br])ccc(N3CCC(N)CC3)c2n1 [[^77Br]2]"
data_value = "0.07 (0.01) %injected dose/gram tissue"

[[record]]
compound = "COCCOc1ccc2c(c1)ncn2-c1ccc2cccc(N3CCC(NC(=O)c4cccc([77Br])c4)CC3)c2n1 [[^77Br]3]"
data_value = "0.18 (0.05) %injected dose/gram tissue"


* * *

Listed here are compounds together with their documented Radioactivity in Muscle.
PROTOCOL: Biodistribution in ddY mice
Assay type: in vivo
CONDITION SUMMARY: i.v. co-injection, 10 min
Source text: In this study, to minimize both the number of mice consumed in the experiment and the potential for experimental errors, we co-injected radiobrominated and radioiodinated compounds into mice[30],[31]. High radioactivity in the liver, small intestine, and large intestine was observed. […] Tissues in mice were resected and weighed. The radioactivity of the tissues was counted by a gamma counter and counts were corrected for background radiation. […]
Marks after values point to notes of the source that are not given here.
RECORDED METRIC: Radioactivity in Muscle

[[record]]
compound = "COCCOc1ccc2c(c1)ncn2-c1ccc2c([77Br])ccc(N3CCC(N)CC3)c2n1 [[^77Br]2]"
data_value = "2.24 (0.18) %injected dose/gram tissue"

[[record]]
compound = "COCCOc1ccc2c(c1)ncn2-c1ccc2c([125I])ccc(N3CCC(N)CC3)c2n1 [[^125I]4, reference compound]"
data_value = "1.92 (0.18) %injected dose/gram tissue"

[[record]]
compound = "COCCOc1ccc2c(c1)ncn2-c1ccc2cccc(N3CCC(NC(=O)c4cccc([77Br])c4)CC3)c2n1 [[^77Br]3]"
data_value = "1.28 (0.19) %injected dose/gram tissue"

[[record]]
compound = "COCCOc1ccc2c(c1)ncn2-c1ccc2cccc(N3CCC(NC(=O)c4cccc([125I])c4)CC3)c2n1 [[^125I]5, reference compound]"
data_value = "0.97 (0.16)^* %injected dose/gram tissue"


* * *

PROTOCOL: Biodistribution in ddY mice
Format: in vivo
CONDITION SUMMARY: i.v. co-injection, 1 h
Marks after values point to notes of the source that are not given here.
Listed here are molecules together with their documented Radioactivity in Muscle.
RECORDED METRIC: Radioactivity in Muscle

[[record]]
molecule = "COCCOc1ccc2c(c1)ncn2-c1ccc2cccc(N3CCC(NC(=O)c4cccc([125I])c4)CC3)c2n1 [[^125I]5, reference compound]"
recorded_metric = "Radioactivity in Muscle"
data_value = "0.31 (0.13)^* %injected dose/gram tissue"

[[record]]
molecule = "COCCOc1ccc2c(c1)ncn2-c1ccc2cccc(N3CCC(NC(=O)c4cccc([77Br])c4)CC3)c2n1 [[^77Br]3]"
recorded_metric = "Radioactivity in Muscle"
data_value = "0.91 (0.45) %injected dose/gram tissue"

[[record]]
molecule = "COCCOc1ccc2c(c1)ncn2-c1ccc2c([125I])ccc(N3CCC(N)CC3)c2n1 [[^125I]4, reference compound]"
recorded_metric = "Radioactivity in Muscle"
data_value = "0.78 (0.11) %injected dose/gram tissue"

[[record]]
molecule = "COCCOc1ccc2c(c1)ncn2-c1ccc2c([77Br])ccc(N3CCC(N)CC3)c2n1 [[^77Br]2]"
recorded_metric = "Radioactivity in Muscle"
data_value = "0.92 (0.04) %injected dose/gram tissue"


* * *

PROTOCOL: Biodistribution in ddY mice
Assay type: in vivo
CONDITION SUMMARY: i.v. co-injection, 24 h
Marks after values point to notes of the source that are not given here.
Listed here are compounds together with their documented Radioactivity in Pancreas.
RECORDED METRIC: Radioactivity in Pancreas

[[record]]
compound = "COCCOc1ccc2c(c1)ncn2-c1ccc2c([77Br])ccc(N3CCC(N)CC3)c2n1 [[^77Br]2]"
data_value = "0.41 (0.34) %injected dose/gram tissue"

[[record]]
compound = "COCCOc1ccc2c(c1)ncn2-c1ccc2c([125I])ccc(N3CCC(N)CC3)c2n1 [[^125I]4, reference compound]"
data_value = "0.07 (0.02) %injected dose/gram tissue"

[[record]]
compound = "COCCOc1ccc2c(c1)ncn2-c1ccc2cccc(N3CCC(NC(=O)c4cccc([77Br])c4)CC3)c2n1 [[^77Br]3]"
data_value = "0.68 (0.03) %injected dose/gram tissue"


* * *

Listed here are molecules together with their documented Radioactivity in Stomach.
PROTOCOL: Biodistribution in ddY mice
Type: in vivo
CONDITION SUMMARY: i.v. co-injection, 1 h
RECORDED METRIC: Radioactivity in Stomach

[[record]]
molecule = "COCCOc1ccc2c(c1)ncn2-c1ccc2c([125I])ccc(N3CCC(N)CC3)c2n1 [[^125I]4, reference compound]"
data_value = "1.76 (0.58) %injected dose /organ"

[[record]]
molecule = "COCCOc1ccc2c(c1)ncn2-c1ccc2cccc(N3CCC(NC(=O)c4cccc([125I])c4)CC3)c2n1 [[^125I]5, reference compound]"
data_value = "0.78 (0.19) %injected dose /organ"

[[record]]
molecule = "COCCOc1ccc2c(c1)ncn2-c1ccc2c([77Br])ccc(N3CCC(N)CC3)c2n1 [[^77Br]2]"
data_value = "1.62 (0.55) %injected dose /organ"

[[record]]
molecule = "COCCOc1ccc2c(c1)ncn2-c1ccc2cccc(N3CCC(NC(=O)c4cccc([77Br])c4)CC3)c2n1 [[^77Br]3]"
data_value = "1.10 (0.24) %injected dose /organ"


* * *

PROTOCOL: Biodistribution in ddY mice
Format: in vivo
CONDITION SUMMARY: i.v. co-injection, 24 h
Text: In this study, to minimize both the number of mice consumed in the experiment and the potential for experimental errors, we co-injected radiobrominated and radioiodinated compounds into mice[30],[31]. High radioactivity in the liver, small intestine, and large intestine was observed. […] Tissues in mice were resected and weighed. The radioactivity of the tissues was counted by a gamma counter and counts were corrected for background radiation. […]
Marks after values point to notes of the source that are not given here.
Listed here are compounds together with their documented Radioactivity in Blood.
RECORDED METRIC: Radioactivity in Blood

[[record]]
compound = "COCCOc1ccc2c(c1)ncn2-c1ccc2cccc(N3CCC(NC(=O)c4cccc([77Br])c4)CC3)c2n1 [[^77Br]3]"
data_value = "0.39 (0.05) %injected dose/gram tissue"

[[record]]
compound = "COCCOc1ccc2c(c1)ncn2-c1ccc2c([77Br])ccc(N3CCC(N)CC3)c2n1 [[^77Br]2]"
data_value = "0.12 (0.02) %injected dose/gram tissue"


Where do the numbers come from? From paper PMC6039436.
